systemTested: UniProt P03372
methodDescription: In vitro binding affinity to the estrogen receptor-α, displacement assay with 0.5 nM 3H-estradiol
condition: hER-α recombinant, insect Sf cells; 0.5 nM 3H-estradiol radioligand; tested 0.03-10.0 nM; read-out: ERα-aff IC50
Under this convention, YES denotes IC50 strictly below 2 nM and NO denotes IC50 at or above 2 nM.

# compound, group
measured = [
    ("CO[C@@H]1c2cc(O)ccc2C2CC[C@@]3(C)C(C[C@@H](O)C34CC4)C2[C@@H]1CCCCCCCCC[S+]([O-])CCCC(F)(F)C(F)(F)F (stereo partly drawn)", "NO"),
    ("CO[C@H]1c2cc(O)ccc2C2CC[C@@]3(C)C(C[C@@H](O)C34CC4)C2[C@@H]1CCCCCCCCC[S+]([O-])CCCC(F)(F)C(F)(F)F (stereo partly drawn)", "NO"),
    ("C[C@]12CCC3c4ccc(O)cc4[C@@H](O)[C@@H](CCCCCCCCC[S+]([O-])CCCC(F)(F)C(F)(F)F)C3C1C[C@@H](O)C21CC1 (stereo partly drawn)", "YES"),
]

Query :: Identify whether the compound `C=C1[C@H](O)C[C@H]2[C@@H]3[C@H](CCCCCCCCCCC(=O)N(C)CCCC)Cc4cc(O)ccc4[C@H]3CC[C@]12C` records IC50 below 2 nM.
Result :: NO

Query :: Identify whether the compound C[C@]12CCC3c4ccc(O)cc4[C@H](F)[C@@H](CCCCCCCCC[S+]([O-])CCCC(F)(F)C(F)(F)F)C3C1C[C@@H](O)C21CC1 (stereo partly drawn) records IC50 below 2 nM.
Result :: YES

Query :: Identify whether the compound C[C@]12CCC3c4ccc(O)cc4C[C@@H](CCCCCCCCC[S+]([O-])CCCC(F)(F)C(F)(F)F)C3C1C[C@@H](O)C21CC1 (stereo partly drawn) records IC50 below 2 nM.
Result :: YES

Query :: Identify whether the compound CCCCN(C)C(=O)CCCCCCCCCC[C@@H]1Cc2cc(O)ccc2C2CC[C@@]3(C)C(C[C@@H](O)C34CC4)C21 (stereo partly drawn) records IC50 below 2 nM.
Result :: NO

Query :: Identify whether the compound C[C@]12CCC3c4ccc(O)cc4C(=O)[C@@H](CCCCCCCCC[S+]([O-])CCCC(F)(F)C(F)(F)F)C3C1C[C@@H](O)C21CC1 (stereo partly drawn) records IC50 below 2 nM.
Result :: NO

Query :: Identify whether the compound C=C1[C@H](O)CC2C3C(CC[C@]12C)c1ccc(O)cc1C[C@H]3CCCCCCCCC[S+]([O-])CCCC(F)(F)C(F)(F)F (stereo partly drawn) records IC50 below 2 nM.
Result :: YES

====

systemTested: hER-α (Homo sapiens, UniProt P03372)
Sequence (P03372 whole entry): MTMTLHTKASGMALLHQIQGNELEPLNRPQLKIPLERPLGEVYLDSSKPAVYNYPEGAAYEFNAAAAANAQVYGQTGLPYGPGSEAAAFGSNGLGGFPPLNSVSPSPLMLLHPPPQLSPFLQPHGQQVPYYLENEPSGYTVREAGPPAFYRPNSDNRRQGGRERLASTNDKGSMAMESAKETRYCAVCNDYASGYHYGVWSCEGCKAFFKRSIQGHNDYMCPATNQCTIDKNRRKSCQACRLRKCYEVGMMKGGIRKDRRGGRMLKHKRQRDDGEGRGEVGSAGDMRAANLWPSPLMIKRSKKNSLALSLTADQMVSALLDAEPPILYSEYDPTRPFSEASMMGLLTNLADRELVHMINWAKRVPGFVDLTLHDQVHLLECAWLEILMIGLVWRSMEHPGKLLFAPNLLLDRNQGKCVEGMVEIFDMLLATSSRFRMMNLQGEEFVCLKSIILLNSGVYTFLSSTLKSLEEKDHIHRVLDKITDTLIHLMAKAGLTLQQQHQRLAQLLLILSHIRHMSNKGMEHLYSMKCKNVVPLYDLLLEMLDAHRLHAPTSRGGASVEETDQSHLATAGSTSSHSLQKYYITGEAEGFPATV
methodDescription: In vitro binding affinity to the estrogen receptor-α, displacement assay with 0.5 nM 3H-estradiol
condition: hER-α recombinant, insect Sf cells; 0.5 nM 3H-estradiol radioligand; tested 0.03-10.0 nM; read-out: ERα-aff Ki
propertyMeasured: Ki (nM)
One number for each entry, in nM.

See these solved cases before continuing.
# compound, outputUnit, Ki
records = [
    ("C=C1[C@H](O)CC2C3C(CC[C@]12C)c1ccc(O)cc1C[C@H]3CCCCCCCCC[S+]([O-])CCCC(F)(F)C(F)(F)F (stereo partly drawn) [Ex 5]", "nM", 0.34),
    ("C=C1[C@H](O)C[C@H]2[C@@H]3[C@H](CCCCCCCCCCC(=O)N(C)CCCC)Cc4cc(O)ccc4[C@H]3CC[C@]12C [Ex 1]", "nM", 1),
]

Give one value of Ki per listed compound.
1. C[C@]12CCC3c4ccc(O)cc4[C@@H](O)[C@@H](CCCCCCCCC[S+]([O-])CCCC(F)(F)C(F)(F)F)C3C1C[C@@H](O)C21CC1 (stereo partly drawn) [Ex 12]
2. CO[C@H]1c2cc(O)ccc2C2CC[C@@]3(C)C(C[C@@H](O)C34CC4)C2[C@@H]1CCCCCCCCC[S+]([O-])CCCC(F)(F)C(F)(F)F (stereo partly drawn) [Ex 8]
3. C[C@]12CCC3c4ccc(O)cc4C[C@@H](CCCCCCCCC[S+]([O-])CCCC(F)(F)C(F)(F)F)C3C1C[C@@H](O)C21CC1 (stereo partly drawn) [Ex 18]
4. CCCCN(C)C(=O)CCCCCCCCCC[C@@H]1Cc2cc(O)ccc2C2CC[C@@]3(C)C(C[C@@H](O)C34CC4)C21 (stereo partly drawn) [Ex 4]

Result ::
[0.45, 2.91, 0.26, 0.71]

Give one value of Ki per listed compound.
1. C[C@]12CCC3c4ccc(O)cc4[C@H](F)[C@@H](CCCCCCCCC[S+]([O-])CCCC(F)(F)C(F)(F)F)C3C1C[C@@H](O)C21CC1 (stereo partly drawn) [Ex 16]
2. C[C@]12CCC3c4ccc(O)cc4C(=O)[C@@H](CCCCCCCCC[S+]([O-])CCCC(F)(F)C(F)(F)F)C3C1C[C@@H](O)C21CC1 (stereo partly drawn) [Ex 10]

Result ::
1. 0.3
2. 1.36

Cited source: patent US20070142345A1
